# EXPERIMENTAL_SYSTEM: ATP-dependent translocase ABCB1 (Homo sapiens, UniProt P08183)
# Sequence (P08183 whole entry): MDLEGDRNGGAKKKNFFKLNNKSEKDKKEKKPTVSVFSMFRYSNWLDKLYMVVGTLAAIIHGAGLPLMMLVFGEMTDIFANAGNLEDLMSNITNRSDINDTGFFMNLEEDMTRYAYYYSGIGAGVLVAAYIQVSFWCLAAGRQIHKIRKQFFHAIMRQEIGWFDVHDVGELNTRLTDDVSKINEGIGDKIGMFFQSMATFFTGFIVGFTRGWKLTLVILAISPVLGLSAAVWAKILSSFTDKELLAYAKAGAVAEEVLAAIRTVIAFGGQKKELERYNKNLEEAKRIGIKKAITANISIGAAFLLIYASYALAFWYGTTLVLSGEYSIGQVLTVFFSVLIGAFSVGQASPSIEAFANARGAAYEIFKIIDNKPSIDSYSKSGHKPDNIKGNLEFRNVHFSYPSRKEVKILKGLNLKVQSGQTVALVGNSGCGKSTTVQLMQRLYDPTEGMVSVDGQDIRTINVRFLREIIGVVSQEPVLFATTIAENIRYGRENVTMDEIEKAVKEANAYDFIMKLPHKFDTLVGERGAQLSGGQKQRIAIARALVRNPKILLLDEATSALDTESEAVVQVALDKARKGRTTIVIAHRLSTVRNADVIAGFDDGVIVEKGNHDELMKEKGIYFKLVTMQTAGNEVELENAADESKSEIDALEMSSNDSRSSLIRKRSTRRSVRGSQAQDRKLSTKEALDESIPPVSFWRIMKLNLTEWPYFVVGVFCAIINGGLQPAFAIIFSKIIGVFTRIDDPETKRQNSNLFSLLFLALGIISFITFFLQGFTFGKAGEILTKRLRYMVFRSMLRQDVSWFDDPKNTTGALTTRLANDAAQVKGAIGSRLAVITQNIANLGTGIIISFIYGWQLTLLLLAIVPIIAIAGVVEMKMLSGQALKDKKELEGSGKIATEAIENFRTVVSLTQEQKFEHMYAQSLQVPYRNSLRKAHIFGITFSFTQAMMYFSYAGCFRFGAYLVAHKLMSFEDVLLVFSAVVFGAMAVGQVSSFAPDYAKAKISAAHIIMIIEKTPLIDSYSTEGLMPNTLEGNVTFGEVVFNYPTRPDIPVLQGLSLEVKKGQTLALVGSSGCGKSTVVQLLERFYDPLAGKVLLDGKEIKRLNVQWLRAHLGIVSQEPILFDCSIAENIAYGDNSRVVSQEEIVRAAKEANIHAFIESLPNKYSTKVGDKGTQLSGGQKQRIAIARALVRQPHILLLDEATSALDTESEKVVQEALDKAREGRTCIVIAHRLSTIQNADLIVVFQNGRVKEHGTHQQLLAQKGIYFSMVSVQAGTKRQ
# MEASUREMENT_DESCRIPTION: Inhibition of P-gp-mediated multidrug resistance in doxorubicin-resistant human MCF7/ADR cells assessed as fold reversal of resistance by measuring doxorubicin IC50 incubated for 48 hrs by CCK-8 assay relative to doxorubicin IC50 in absence of compound; further: test concentration or dose not given here
# Format: cell-based
# SETTINGS: nci-adr-res
MEASURED_PROPERTY: fold change (FC)
// return just the number, without any unit appended

Answer with the recorded fold change (FC) for the compound listed here: COc1cc2c(cc1OC)CN(C(=O)c1cc3cc(-c4ccc(NC(=O)c5cccc(Cl)c5)cc4)ccc3[nH]1)CC2
431.5

Recall and state the measured fold change (FC) for COc1cc2c(cc1OC)CN(C(=O)c1cc3cc(-c4ccc(NC(=O)c5ccc(Cl)cc5)cc4)ccc3n1Cc1ccc([N+](=O)[O-])cc1)CC2 .
25.9

# return recorded fold change (FC) for input COc1cc2c(cc1OC)CN(C(=O)c1cc3cc(-c4ccc(NC(=O)c5ccc(C#N)cc5)cc4)ccc3[nH]1)CC2
39.1

Give the reported fold change (FC) for this compound. COc1ccc(-c2ccc3[nH]c(C(=O)N4CCc5cc(OC)c(OC)cc5C4)cc3c2)cc1
46.4
